Sourced from patent US20230043863A1

procedure.details: Balb/C mouse pharmacokinetics (plasma, colon, ileum)
Assay type: in vivo
condition.set: male, po, Balb/C mice, p.o. 5 mg/kg, ileum, read-out: Curve area AUC0-t
measured.quantity: log10 AUC(0-t) (log10 of the value in ng·h/mL)
The figures below represent log10 of AUC(0-t), where AUC(0-t) is stated in ng·h/mL.

Example cases with answers are listed next.
>  <compound.smiles>
Cc1cc(Nc2nc(N[C@@H]3C[C@H]4CCC[C@@H](C3)N4S(=O)(=O)c3ccccn3)nc3sccc23)n[nH]1

>  <measured.quantity>
log10 AUC(0-t)

>  <result.value>
4.32

$$$$
>  <compound.smiles>
Cc1cc(Nc2nc(N[C@@H]3C[C@@H]4CN(CCC#N)C[C@@H]4C3)nc3ccsc23)n[nH]1

>  <measured.quantity>
log10 AUC(0-t)

>  <result.value>
3.12

$$$$
>  <compound.smiles>
CNCC(=O)N1[C@@H]2CCC[C@H]1C[C@H](Nc1nc(Nc3cc(C)[nH]n3)c3ccsc3n1)C2

>  <measured.quantity>
log10 AUC(0-t)

>  <result.value>
4.39

$$$$
>  <compound.smiles>
COc1ccc2c(Nc3cc(C)[nH]n3)nc(N[C@@H]3C[C@H]4CC[C@@H](C3)N4CCC#N)nc2c1

>  <measured.quantity>
log10 AUC(0-t)

>  <result.value>
4.84

$$$$
>  <compound.smiles>
Cc1cc(Nc2nc(N[C@@H]3C[C@H]4CCC[C@@H](C3)N4CCC#N)nc3scnc23)n[nH]1

>  <measured.quantity>
log10 AUC(0-t)

>  <result.value>
3.80

$$$$

INPUT: Data request, read-out log10 AUC(0-t), for Cc1cnc(Nc2cc3ncccc3c(N[C@@H]3C[C@H]4CC[C@@H](C3)N4CCC#N)n2)s1
OUTPUT: 4.96

INPUT: Data request, read-out log10 AUC(0-t), for Cc1cc(Nc2nc(N[C@@H]3C[C@H]4CC[C@@H](C3)N4CCC#N)nc3c2cnn3C)n[nH]1
OUTPUT: 4.03

###

system.tested: TYK2 (Homo sapiens)
Sequence (P29597 whole entry): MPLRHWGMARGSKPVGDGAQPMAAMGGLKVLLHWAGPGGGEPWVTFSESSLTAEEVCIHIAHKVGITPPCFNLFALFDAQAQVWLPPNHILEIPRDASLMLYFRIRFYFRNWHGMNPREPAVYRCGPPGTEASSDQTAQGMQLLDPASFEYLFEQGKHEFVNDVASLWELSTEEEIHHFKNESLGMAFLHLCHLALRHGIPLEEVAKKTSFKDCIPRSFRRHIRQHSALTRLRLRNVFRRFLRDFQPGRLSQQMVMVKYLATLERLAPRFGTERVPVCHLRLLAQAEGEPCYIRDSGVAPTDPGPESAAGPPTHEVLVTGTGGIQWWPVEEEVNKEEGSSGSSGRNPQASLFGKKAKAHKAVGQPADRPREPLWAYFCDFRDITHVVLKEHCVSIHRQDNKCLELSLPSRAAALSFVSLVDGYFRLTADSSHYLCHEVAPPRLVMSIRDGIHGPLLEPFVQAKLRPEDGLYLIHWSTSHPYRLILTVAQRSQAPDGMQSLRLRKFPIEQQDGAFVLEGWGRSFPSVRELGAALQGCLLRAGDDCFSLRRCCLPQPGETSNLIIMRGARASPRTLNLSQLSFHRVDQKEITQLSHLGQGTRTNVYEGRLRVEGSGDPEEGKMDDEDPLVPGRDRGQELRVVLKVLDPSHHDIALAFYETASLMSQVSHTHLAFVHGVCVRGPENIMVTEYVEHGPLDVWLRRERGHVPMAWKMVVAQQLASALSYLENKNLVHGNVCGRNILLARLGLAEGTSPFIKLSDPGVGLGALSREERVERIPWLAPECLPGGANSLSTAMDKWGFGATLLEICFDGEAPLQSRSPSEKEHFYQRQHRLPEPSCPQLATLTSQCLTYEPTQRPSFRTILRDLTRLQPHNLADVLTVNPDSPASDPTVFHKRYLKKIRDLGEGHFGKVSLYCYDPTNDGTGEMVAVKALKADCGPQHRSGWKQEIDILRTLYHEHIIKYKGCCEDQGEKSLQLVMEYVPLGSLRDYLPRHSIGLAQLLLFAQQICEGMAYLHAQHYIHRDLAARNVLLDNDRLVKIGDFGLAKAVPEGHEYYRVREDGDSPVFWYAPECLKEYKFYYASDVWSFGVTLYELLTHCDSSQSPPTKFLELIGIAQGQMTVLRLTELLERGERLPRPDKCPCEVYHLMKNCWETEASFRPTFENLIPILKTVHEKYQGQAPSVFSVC
measured.quantity: log10(IC50) (log10 of the value in pM)
The figures below represent log10 of IC50, where IC50 is stated in pM.

Example cases with answers are listed next.
>  <compound.smiles>
Cc1cc(Nc2nc(N[C@@H]3C[C@H]4CC[C@@H](C3)N4CCF)nc3ccccc23)n[nH]1

>  <log10(IC50)>
3.85

$$$$
>  <compound.smiles>
Cc1cc(Nc2nc(N[C@@H]3C[C@H]4CCC[C@@H](C3)N4CCC#N)nc3scnc23)n[nH]1

>  <log10(IC50)>
2.99

$$$$
>  <compound.smiles>
O=C(C(F)F)N1[C@@H]2CC[C@H]1C[C@H](Nc1nc(Nc3ncc(CO)s3)cc3ncccc13)C2

>  <log10(IC50)>
3.97

$$$$
>  <compound.smiles>
Cc1cc(Nc2nc(N[C@@H]3C[C@H]4CCC[C@@H](C3)N4S(=O)(=O)N3CC(C#N)C3)nc3ccccc23)n[nH]1

>  <log10(IC50)>
2.00

$$$$
>  <compound.smiles>
N#CCCN1[C@@H]2CC[C@H]1C[C@H](Nc1nc(Nc3cc(CO)[nH]n3)c3ccsc3n1)C2

>  <log10(IC50)>
3.34

$$$$
>  <compound.smiles>
Cc1cc(Nc2nc(N[C@@H]3C[C@H]4CC[C@@H](C3)N4CCC#N)nc3cnccc23)n[nH]1

>  <log10(IC50)>
2.92

$$$$

// switching to the query compound
INPUT: Data request, read-out log10(IC50), for Cc1cc(Nc2nc(N[C@@H]3C[C@H]4CCC[C@@H](C3)N4C(=O)CN(C)C)nc3sccc23)n[nH]1
OUTPUT: 2.95
